Target under test: HCMV DNA polymerase (Human cytomegalovirus)
Sequence (P08546 whole entry): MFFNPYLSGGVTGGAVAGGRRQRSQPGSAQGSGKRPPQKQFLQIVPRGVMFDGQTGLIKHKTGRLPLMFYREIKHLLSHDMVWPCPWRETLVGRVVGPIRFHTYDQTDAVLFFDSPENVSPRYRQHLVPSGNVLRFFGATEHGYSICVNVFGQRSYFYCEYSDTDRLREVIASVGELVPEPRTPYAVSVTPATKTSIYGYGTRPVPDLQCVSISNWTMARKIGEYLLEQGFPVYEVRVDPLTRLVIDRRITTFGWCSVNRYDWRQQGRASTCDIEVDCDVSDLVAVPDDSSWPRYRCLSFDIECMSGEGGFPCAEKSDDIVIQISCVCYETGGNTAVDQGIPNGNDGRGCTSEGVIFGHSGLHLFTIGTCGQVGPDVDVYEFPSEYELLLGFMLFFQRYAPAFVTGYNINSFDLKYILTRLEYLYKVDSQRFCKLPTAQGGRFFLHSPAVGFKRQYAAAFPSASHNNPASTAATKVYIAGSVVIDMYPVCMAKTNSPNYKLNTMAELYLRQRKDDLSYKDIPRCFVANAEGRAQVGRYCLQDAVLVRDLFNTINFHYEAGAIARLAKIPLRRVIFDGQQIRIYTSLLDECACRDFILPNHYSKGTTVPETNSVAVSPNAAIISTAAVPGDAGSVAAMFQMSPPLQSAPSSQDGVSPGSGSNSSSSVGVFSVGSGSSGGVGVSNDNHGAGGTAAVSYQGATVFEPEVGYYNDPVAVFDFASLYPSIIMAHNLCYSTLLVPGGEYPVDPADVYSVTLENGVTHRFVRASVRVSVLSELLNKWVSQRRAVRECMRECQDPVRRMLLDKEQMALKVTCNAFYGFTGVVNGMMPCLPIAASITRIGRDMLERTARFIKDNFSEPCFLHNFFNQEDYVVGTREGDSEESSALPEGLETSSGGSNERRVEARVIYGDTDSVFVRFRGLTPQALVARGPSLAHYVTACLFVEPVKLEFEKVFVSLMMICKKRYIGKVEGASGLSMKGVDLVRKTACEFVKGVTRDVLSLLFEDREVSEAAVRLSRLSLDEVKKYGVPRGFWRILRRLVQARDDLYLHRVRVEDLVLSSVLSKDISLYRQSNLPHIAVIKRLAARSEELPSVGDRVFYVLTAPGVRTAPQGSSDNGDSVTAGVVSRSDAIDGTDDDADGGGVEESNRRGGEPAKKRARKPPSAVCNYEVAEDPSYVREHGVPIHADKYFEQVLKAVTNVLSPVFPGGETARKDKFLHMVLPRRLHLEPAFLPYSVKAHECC
Protocol details: Kinetic analysis of HCMV DNA polymerase inhibition
Type: biochemical
Measurement context: Ki, non-competitive model, varying dGTP, calf thymus DNA
Readout name: pKi
Keep in mind that pKi stands for -log10 of concentration in molar terms.

// query Fill in: pKi of Nc1nc2c(ncn2[C@@H]2CC[C@H](OC(C(=O)O)P(=O)(O)O)C2)c(=O)[nH]1 (mixture of isomers) [(L,D)-(±)G-α-CNP] is ___
// result 5.07

====

Target under test: cellular DNA polymerase α (Homo sapiens, UniProt P09884)
Sequence (P09884 whole entry): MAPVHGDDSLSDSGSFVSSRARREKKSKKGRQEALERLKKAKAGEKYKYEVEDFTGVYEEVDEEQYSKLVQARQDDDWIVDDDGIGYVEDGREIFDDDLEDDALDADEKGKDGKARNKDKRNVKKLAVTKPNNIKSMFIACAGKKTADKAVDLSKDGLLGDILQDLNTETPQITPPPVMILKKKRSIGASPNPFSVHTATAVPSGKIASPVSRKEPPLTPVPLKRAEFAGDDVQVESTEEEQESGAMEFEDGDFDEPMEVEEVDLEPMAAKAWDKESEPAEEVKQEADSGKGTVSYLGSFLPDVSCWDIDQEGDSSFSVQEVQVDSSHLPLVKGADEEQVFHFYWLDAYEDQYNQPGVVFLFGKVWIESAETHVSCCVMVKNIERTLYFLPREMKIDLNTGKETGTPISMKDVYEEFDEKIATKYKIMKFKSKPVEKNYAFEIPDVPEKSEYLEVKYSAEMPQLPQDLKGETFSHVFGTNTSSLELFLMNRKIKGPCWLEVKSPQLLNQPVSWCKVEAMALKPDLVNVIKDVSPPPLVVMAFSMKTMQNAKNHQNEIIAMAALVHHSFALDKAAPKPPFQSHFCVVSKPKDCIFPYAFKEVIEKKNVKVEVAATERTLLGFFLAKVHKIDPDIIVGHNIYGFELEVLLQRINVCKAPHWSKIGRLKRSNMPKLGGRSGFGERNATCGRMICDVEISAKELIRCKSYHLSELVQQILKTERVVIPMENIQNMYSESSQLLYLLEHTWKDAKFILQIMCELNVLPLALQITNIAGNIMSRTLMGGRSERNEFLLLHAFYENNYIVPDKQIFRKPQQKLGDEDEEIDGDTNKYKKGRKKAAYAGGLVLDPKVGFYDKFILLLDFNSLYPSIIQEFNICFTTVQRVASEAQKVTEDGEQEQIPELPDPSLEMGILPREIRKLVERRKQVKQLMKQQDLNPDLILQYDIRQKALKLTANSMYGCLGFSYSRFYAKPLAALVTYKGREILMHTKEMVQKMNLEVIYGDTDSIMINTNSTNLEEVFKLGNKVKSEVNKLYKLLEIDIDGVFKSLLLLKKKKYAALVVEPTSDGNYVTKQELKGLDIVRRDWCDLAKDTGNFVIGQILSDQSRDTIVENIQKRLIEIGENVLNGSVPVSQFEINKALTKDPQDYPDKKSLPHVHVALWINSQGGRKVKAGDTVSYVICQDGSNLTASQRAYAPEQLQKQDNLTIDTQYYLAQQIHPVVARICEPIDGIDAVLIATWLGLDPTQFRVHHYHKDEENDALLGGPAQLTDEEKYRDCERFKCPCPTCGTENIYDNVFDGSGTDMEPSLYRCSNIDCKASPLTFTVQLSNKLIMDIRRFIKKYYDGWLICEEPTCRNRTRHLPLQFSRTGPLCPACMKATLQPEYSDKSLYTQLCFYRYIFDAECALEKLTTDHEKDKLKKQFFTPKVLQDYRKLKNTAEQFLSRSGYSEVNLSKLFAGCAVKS
Protocol details: Cellular DNA polymerase α assay
Type: biochemical
pIC50 for assorted molecules
Keep in mind that pIC50 stands for -log10 of concentration in molar terms.

{"Molecule": "Nc1nc2c(ncn2[C@@H]2CC[C@H](OC(C(=O)O)P(=O)(O)O)C2)c(=O)[nH]1 (mixture of isomers) [(L,D)-(±)G-α-CNP]", "pIC50": 3.32}

// query Fill in: pIC50 of Nc1nc2c(ncn2[C@H]2CC[C@@H](COP(=O)(O)OP(=O)(O)OP(=O)(O)O)O2)c(=O)[nH]1 [ddGTP, 2′,3′-dideoxyguanosine-5′-triphosphate] is ___
// result 4.14
